Where do the numbers come from? From paper PMC7155755.

- experimental_target: T1, human 14-3-3 isoform σ (recombinant, MBP tag removed) (human, UniProt P31947 1-248)
- T1 construct: 14-3-3 sigma, human; Expressed from pMAL2CX plasmids; also called 14-3-3σ; source: E. coli BL21DE3, purified (maltose-agarose, Factor Xa, anion exchange)
- T1 sequence (looked up): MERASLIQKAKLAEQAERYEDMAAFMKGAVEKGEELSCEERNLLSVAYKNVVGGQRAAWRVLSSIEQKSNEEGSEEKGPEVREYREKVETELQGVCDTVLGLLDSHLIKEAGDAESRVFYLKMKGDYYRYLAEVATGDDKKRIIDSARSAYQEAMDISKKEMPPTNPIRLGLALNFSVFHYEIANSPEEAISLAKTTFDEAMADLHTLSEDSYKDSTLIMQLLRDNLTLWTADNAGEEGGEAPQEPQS
- assay_info: fluorescence polarisation; direct binding; dilution series of 14-3-3 isoform (at least 5 μM down to picomolar) mixed with 1 nM fluorescein-labelled peptide; 20 mM MOPS pH 7, 150 mM NaCl, 0.005% CHAPS; 384-well plates
- particulars: both partners purified
Square brackets hold non-standard residues; d marks the D form. Ends that are not written are not given here. fluorescein = N-terminal fluorescein label; pS = N[C@@H](COP(=O)(O)O)C(=O)O
Let's look at some binders and their measured Kd.
Report only the number, with the unit nM understood.

Item fluorescein-RCSPNLRRHSN[pS]LGPIFDH (LRRK2-derived peptide with the possible pathogenic mutation Q930R, phosphorylated at S935; source: synthetic peptide (Peps4LS GmbH)) [Q930R/pS935] has what recorded Kd?
350

Item fluorescein-KKSN[pS]ISVGEFYRDAVLQRCSPNLQRHSN[pS]LGPIF (LRRK2-derived 35-mer covering S910 and S935, phosphorylated at both; source: synthetic peptide (Peps4LS GmbH)) [pS910/pS935] has what recorded Kd?
60.6
